Molecular target: BATF3;JUNB (human;human, UniProt Q9NR55;P17275 1-127;148-347, |)
Sequence 1: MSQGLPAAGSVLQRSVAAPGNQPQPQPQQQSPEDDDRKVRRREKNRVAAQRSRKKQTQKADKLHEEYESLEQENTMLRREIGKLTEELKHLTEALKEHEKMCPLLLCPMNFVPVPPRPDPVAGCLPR
Sequence 2: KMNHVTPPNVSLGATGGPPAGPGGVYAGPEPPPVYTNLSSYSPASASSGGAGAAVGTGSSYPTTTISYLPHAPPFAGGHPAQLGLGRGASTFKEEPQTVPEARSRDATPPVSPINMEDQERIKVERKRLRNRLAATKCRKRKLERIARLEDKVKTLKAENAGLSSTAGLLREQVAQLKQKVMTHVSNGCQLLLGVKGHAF
Test: Spec-seq (EMSA and sequencing of bound and unbound bands); 100 nM BATFx-JUNB, 1 uM dsDNA library, 50 mM K acetate, 20 mM Tris-acetate, 10 mM Mg acetate, 100 ug/ml BSA, pH 7.9, 10% glycerol, 30 min on ice; native 9% PAGE at 4 C; low values mean tight binding
Conditions: protein: recombinant;recombinant; tags: N-terminal mCherry-TEV, cleaved off;C-terminal 6His; copies: 1;1; dsDNA, one strand shown
Simple rule here: binding signal less than 0.3 kT is T, otherwise F.

1) GATAGTCTCATTTTCACCCCGTGAAATGACTCCATTGTTCCATTACAGTATCTGT : T
2) GATAGTCTCATTTTCACCCCGTGAAATGGGTCATTTGTTCCATTACAGTATCTGT : F
3) GATAGTCTCATTTTCACCCCGTGAAATGACCTCATTGTTCCATTACAGTATCTGT : T
4) GATAGTCTCATTTTCACCCCGTGAAATGACGTTATTGTTCCATTACAGTATCTGT : T
5) GATAGTCTCATTTTCACCCCGTGAAAGTTAGTCATTGTTCCATTACAGTATCTGT : T
6) GATAGTCTCATTTTCACCCCGTGAAATAGAGTCATTGTTCCATTACAGTATCTGT : T
7) GATAGTCTCATTTTCACCCCGTGAAAATGTGTCATTGTTCCATTACAGTATCTGT : T
8) GATAGTCTCATTTTCACCCCGTGAAATGAGCCATTTGTTCCATTACAGTATCTGT : F
9) GATAGTCTCATTTTCACCCCGTGAAATTAAGTCATTGTTCCATTACAGTATCTGT : T
10) GATAGTCTCATTTTCACCCCGTGAAACGACTCATTTGTTCCATTACAGTATCTGT : T
11) GATAGTCTCATTTTCACCCCGTGAAATGACTTAATTGTTCCATTACAGTATCTGT : T
12) GATAGTCTCATTTTCACCCCGTGAAAGGGAGTCATTGTTCCATTACAGTATCTGT : T
13) GATAGTCTCATTTTCACCCCGTGAAATGACACACTTGTTCCATTACAGTATCTGT : F
14) GATAGTCTCATTTTCACCCCGTGAAATTGCGTCATTGTTCCATTACAGTATCTGT : T
15) GATAGTCTCATTTTCACCCCGTGAAATGAGCCACTTGTTCCATTACAGTATCTGT : F
16) GATAGTCTCATTTTCACCCCGTGAAATGACTGAGTTGTTCCATTACAGTATCTGT : T
17) GATAGTCTCATTTTCACCCCGTGAAATGCGTCATTTGTTCCATTACAGTATCTGT : T
18) GATAGTCTCATTTTCACCCCGTGAAATGAGACAATTGTTCCATTACAGTATCTGT : F
19) GATAGTCTCATTTTCACCCCGTGAAATGATTCATTTGTTCCATTACAGTATCTGT : T
20) GATAGTCTCATTTTCACCCCGTGAAATGACTCTCTTGTTCCATTACAGTATCTGT : F
21) GATAGTCTCATTTTCACCCCGTGAAATTGTGTCATTGTTCCATTACAGTATCTGT : T
22) GATAGTCTCATTTTCACCCCGTGAAATAACGTCATTGTTCCATTACAGTATCTGT : T
23) GATAGTCTCATTTTCACCCCGTGAAATAACTCATTTGTTCCATTACAGTATCTGT : F
24) GATAGTCTCATTTTCACCCCGTGAAATGAGTCTATTGTTCCATTACAGTATCTGT : F
25) GATAGTCTCATTTTCACCCCGTGAAATGAGGCATTTGTTCCATTACAGTATCTGT : F
26) GATAGTCTCATTTTCACCCCGTGAAATGAGACAGTTGTTCCATTACAGTATCTGT : F
27) GATAGTCTCATTTTCACCCCGTGAAAAAGAGTCATTGTTCCATTACAGTATCTGT : T
28) GATAGTCTCATTTTCACCCCGTGAAAGGAGTCATTTGTTCCATTACAGTATCTGT : T
29) GATAGTCTCATTTTCACCCCGTGAAAAGAGTCATTTGTTCCATTACAGTATCTGT : T
30) GATAGTCTCATTTTCACCCCGTGAAATTGAGTCATTGTTCCATTACAGTATCTGT : T
31) GATAGTCTCATTTTCACCCCGTGAAATGAGTCGATTGTTCCATTACAGTATCTGT : F
32) GATAGTCTCATTTTCACCCCGTGAAATGAGTGAATTGTTCCATTACAGTATCTGT : F
33) GATAGTCTCATTTTCACCCCGTGAAATGACGTCGTTGTTCCATTACAGTATCTGT : T
34) GATAGTCTCATTTTCACCCCGTGAAACTGAGTCATTGTTCCATTACAGTATCTGT : T
35) GATAGTCTCATTTTCACCCCGTGAAATTCAGTCATTGTTCCATTACAGTATCTGT : T
36) GATAGTCTCATTTTCACCCCGTGAAATTACTCATTTGTTCCATTACAGTATCTGT : T
37) GATAGTCTCATTTTCACCCCGTGAAATGACTCAGTTGTTCCATTACAGTATCTGT : T
